Recorded pKD, one value per entry.
Target of assay: Nluc-H1R (Homo sapiens, UniProt P35367)
Assay overview: NanoBRET saturation binding assay on Nluc-H1R expressing HEK293T cells
Parameters: expressed in transfected cells
Condition summary: saturation binding curves, whole HEK293T cells, non-specific with 10 μM mepyramine; mean ± SEM
Excerpt: Total and non-specific saturation binding curves from NanoBRET saturation binding assay were fitted simultaneously using eq 1: [drawing 4] 1 where Bmax is the maximal specific binding, [B] is the concentration of fluorescent ligand in nM, KD is the equilibrium dissociation constant in nM, M is the slope of the non-specific component, and C is the intercept with the Y axis.
Square brackets hold non-standard residues; d marks the D form. Peptide text beside a SMILES is read from it. * marks the point of attachment. X1 = O=C(COc1ccc(/C=C/C2=[N+]3C(=Cc4ccc(-c5cccs5)n4[B-]3(F)F)C=C2)cc1)*; Propanoyl(3-Pip(4-O-2-BnPh)) = O=C(CCN1CCC(Oc2ccccc2Cc2ccccc2)CC1)*; BODIPY(FL) = CC1=CC(C)=[N+]2C1=Cc1ccc(CCC(=O)*)n1[B-]2(F)F; βAla = NCCC(=O)O

What does the record list as pKD for CC(C)[C@H](NC(=O)CCN1CCC(Oc2ccccc2Cc2ccccc2)CC1)C(=O)N[C@@H](C)C(=O)N[C@@H](CC(N)=O)C(=O)NCCC(=O)N[C@@H](CCCCNC(=O)COc1ccc(/C=C/C2=[N+]3C(=Cc4ccc(-c5cccs5)n4[B-]3(F)F)C=C2)cc1)C(N)=O [Compound 31b] ({Propanoyl(3-Pip(4-O-2-BnPh))}-VAN[βAla]K(X1)-NH2) ?
8.34 ± 0.09

What does the record list as pKD for Cc1cc(C)n2c1C=C1C=CC(CCC(=O)NCCCC[C@H](NC(=O)CCNC(=O)[C@H](CC(N)=O)NC(=O)[C@H](CO)NC(=O)[C@@H](NC(=O)CCN3CCC(Oc4ccccc4Cc4ccccc4)CC3)C(C)C)C(N)=O)=[N+]1[B-]2(F)F [Compound 38d] ({Propanoyl(3-Pip(4-O-2-BnPh))}-VSN[βAla]K(BODIPY(FL))-NH2) ?
5.89 ± 0.10

###

Recorded Kb, one value per entry.
Target of assay: human H1R (Homo sapiens, UniProt P35367)
Construct: expressed in transfected cells; host or cells: CHO cells
Sequence (P35367 whole entry): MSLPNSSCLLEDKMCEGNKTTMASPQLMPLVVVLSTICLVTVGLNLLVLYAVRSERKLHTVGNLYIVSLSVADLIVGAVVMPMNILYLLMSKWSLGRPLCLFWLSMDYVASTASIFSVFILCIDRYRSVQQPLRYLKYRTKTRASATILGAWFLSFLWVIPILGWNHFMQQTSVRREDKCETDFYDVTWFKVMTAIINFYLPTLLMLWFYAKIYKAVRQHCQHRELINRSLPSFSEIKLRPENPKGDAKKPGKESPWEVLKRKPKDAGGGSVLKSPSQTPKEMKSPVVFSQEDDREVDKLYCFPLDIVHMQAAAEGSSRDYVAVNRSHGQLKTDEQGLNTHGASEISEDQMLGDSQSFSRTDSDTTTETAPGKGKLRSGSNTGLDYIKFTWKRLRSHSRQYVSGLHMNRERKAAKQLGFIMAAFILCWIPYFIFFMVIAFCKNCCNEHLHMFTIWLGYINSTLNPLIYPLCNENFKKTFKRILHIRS
Assay overview: Ca2+ mobilization assay on human H1R-expressing CHO cells
Assay type: cell-based
Condition summary: Gaddum equation, shift in histamine EC25 with 1 μM antagonist; read-out: KB (converted)
Square brackets hold non-standard residues; d marks the D form. Peptide text beside a SMILES is read from it. * marks the point of attachment. X1 = O=C(COc1ccc(/C=C/C2=[N+]3C(=Cc4ccc(-c5cccs5)n4[B-]3(F)F)C=C2)cc1)*; Propanoyl(3-Pip(4-O-2-BnPh)) = O=C(CCN1CCC(Oc2ccccc2Cc2ccccc2)CC1)*; X3 = Cc1cc(C)n2c1C=C1C=CC(/C=C/c3ccc(OCC(=O)*)cc3)=[N+]1[B-]2(F)F; X2 = O=C(CCC1=[N+]2C(=Cc3ccc(-c4cccs4)n3[B-]2(F)F)C=C1)*; βAla = NCCC(=O)O
Value expressed in nM; do not type the unit.

See these solved cases before continuing.
- CC(C)[C@H](NC(=O)CCN1CCC(Oc2ccccc2Cc2ccccc2)CC1)C(=O)N[C@@H](CO)C(=O)N[C@@H](CC(N)=O)C(=O)NCCC(=O)N[C@@H](CCCCNC(=O)CCCCC[N+]1=C(/C=C/C=C/C=C2/N(C)c3ccc(S(=O)(=O)[O-])cc3C2(C)C)C(C)(C)c2cc(S(=O)(=O)O)ccc21)C(N)=O [Compound 38f]: 4680
- C[C@H](NC(=O)[C@H](C)NC(=O)[C@H](Cc1ccccc1)NC(=O)CCN1CCC(Oc2ccccc2Cc2ccccc2)CC1)C(=O)NCCC(=O)N[C@@H](CCCCNC(=O)CCCCC[N+]1=C(/C=C/C=C/C=C2/N(C)c3ccc(S(=O)(=O)[O-])cc3C2(C)C)C(C)(C)c2cc(S(=O)(=O)O)ccc21)C(N)=O [Compound 39f]: 813
- Cc1cc(C)n2c1C=C1C=CC(/C=C/c3ccc(OCC(=O)NCCCC[C@H](NC(=O)CCNC(=O)[C@H](C)NC(=O)[C@H](C)NC(=O)[C@H](Cc4ccccc4)NC(=O)CCN4CCC(Oc5ccccc5Cc5ccccc5)CC4)C(N)=O)cc3)=[N+]1[B-]2(F)F [Compound 39b] ({Propanoyl(3-Pip(4-O-2-BnPh))}-FAA[βAla]K(X3)-NH2): 102
- C[C@H](NC(=O)[C@H](C)NC(=O)[C@H](Cc1ccccc1)NC(=O)CCN1CCC(Oc2ccccc2Cc2ccccc2)CC1)C(=O)NCCC(=O)N[C@@H](CCCCNC(=O)CCC1=[N+]2C(=Cc3ccc(-c4cccs4)n3[B-]2(F)F)C=C1)C(N)=O [Compound 39c] ({Propanoyl(3-Pip(4-O-2-BnPh))}-FAA[βAla]K(X2)-NH2): 363

Consider now this further compound.
What does the record list as Kb for C[C@H](NC(=O)[C@H](C)NC(=O)[C@H](Cc1ccccc1)NC(=O)CCN1CCC(Oc2ccccc2Cc2ccccc2)CC1)C(=O)NCCC(=O)N[C@@H](CCCCNC(=O)COc1ccc(/C=C/C2=[N+]3C(=Cc4ccc(-c5cccs5)n4[B-]3(F)F)C=C2)cc1)C(N)=O [Compound 31k] ({Propanoyl(3-Pip(4-O-2-BnPh))}-FAA[βAla]K(X1)-NH2) ?
3
